Test system: KM12 colon
Assay: NCI-60 one-dose screen, 48 h
Conditions: 10 µM unless noted
About 83,000 compounds went through this panel and 20% of them were active in at least one assay; those are over-represented in the sample as a whole. The source made the active and inactive calls. How the source made its calls: active means growth percent below 10; inactive means the rest.
Hello, when you answer, please use one of the following outcomes: active, inactive

1) COc1cc2ncnc(Oc3ccc(NC(=O)Nc4ccc(CN5CCOCC5)c(C(F)(F)F)c4)c4ccccc34)c2cc1OC
active
2) O=C1c2ccccc2OC=C(c2ccccc2)N1CCCCNc1ccc(F)cc1
inactive

Next:
INPUT: What did this assay record as the result for O=c1c2ccccc2sc2c(NCCCNCCO)nc3ccccc3c12 ?
OUTPUT: active
